This collection of values is drawn from the supplement of paper PMC6992640.

Test system: HCI01 (cells of a triple-negative basal-like breast cancer xenograft)
Assay: cell viability of combination (% of vehicle); higher = less cytotoxic
Conditions: 1 µM; 72 h; partner dose: 10 nM
parameter: cell viability of combination
Numbers only.

Here's what some known entries look like.
>>> readout_number("CC[C@@]1(O)C(=O)OCc2c1cc1n(c2=O)Cc2cc3c(CN(C)C)c(O)ccc3nc2-1 [Topotecan] + CC(C)C[C@H](NC(=O)[C@H](CCc1ccccc1)NC(=O)CN1CCOCC1)C(=O)N[C@@H](Cc1ccccc1)C(=O)N[C@@H](CC(C)C)C(=O)[C@@]1(C)CO1")
56.9
>>> readout_number("COc1cc2nccc(Oc3ccc(NC(=O)C4(C(=O)Nc5ccc(F)cc5)CC4)cc3)c2cc1OC.O=C(O)CC(O)C(=O)O [Cabozantinib malate (XL184)] + CC(C)C[C@H](NC(=O)[C@H](CCc1ccccc1)NC(=O)CN1CCOCC1)C(=O)N[C@@H](Cc1ccccc1)C(=O)N[C@@H](CC(C)C)C(=O)[C@@]1(C)CO1")
77
>>> readout_number("[O-]n1ccccc1=S.[O-]n1ccccc1=S.[Zn+2] [Zinc Pyrithione] + CC(C)C[C@H](NC(=O)[C@H](CCc1ccccc1)NC(=O)CN1CCOCC1)C(=O)N[C@@H](Cc1ccccc1)C(=O)N[C@@H](CC(C)C)C(=O)[C@@]1(C)CO1")
68.3
>>> readout_number("Cc1c(-c2ccc(O)cc2)n(Cc2ccc(OCCN3CCCCCC3)cc2)c2ccc(O)cc12.Cl [Bazedoxifene HCl] + CC(C)C[C@H](NC(=O)[C@H](CCc1ccccc1)NC(=O)CN1CCOCC1)C(=O)N[C@@H](Cc1ccccc1)C(=O)N[C@@H](CC(C)C)C(=O)[C@@]1(C)CO1")
107
>>> readout_number("Nc1ncn(C2OC(CO)C(O)C2O)c(=O)n1 (stereo not drawn) [5-Azacytidine] + CC(C)C[C@H](NC(=O)[C@H](CCc1ccccc1)NC(=O)CN1CCOCC1)C(=O)N[C@@H](Cc1ccccc1)C(=O)N[C@@H](CC(C)C)C(=O)[C@@]1(C)CO1")
75.9
>>> readout_number("CN1CCN(CCOc2cc(OC3CCOCC3)c3c(Nc4c(Cl)ccc5c4OCO5)ncnc3c2)CC1 [Saracatinib (AZD0530)] + CC(C)C[C@H](NC(=O)[C@H](CCc1ccccc1)NC(=O)CN1CCOCC1)C(=O)N[C@@H](Cc1ccccc1)C(=O)N[C@@H](CC(C)C)C(=O)[C@@]1(C)CO1")
66.1
>>> readout_number("CC(C)(C)NC(=O)C1CC2CCCCC2CN1CC(O)C(Cc1ccccc1)NC(=O)C(CC(N)=O)NC(=O)c1ccc2ccccc2n1.CS(=O)(=O)O (stereo not drawn) [Saquinavir mesylate] + CC(C)C[C@H](NC(=O)[C@H](CCc1ccccc1)NC(=O)CN1CCOCC1)C(=O)N[C@@H](Cc1ccccc1)C(=O)N[C@@H](CC(C)C)C(=O)[C@@]1(C)CO1")
79.5
>>> readout_number("CCc1c(Cl)c(O)c(Cl)c(O)c1C(=O)OC1C(C)OC(OCC2=CC=CCC(O)C(C)=CC(CC)C(OC3OC(C)(C)C(OC(=O)C(C)C)C(O)C3O)C(C)=CC(C)=CCC(C(C)O)OC2=O)C(OC)C1O (stereo not drawn) [Fidaxomicin] + CC(C)C[C@H](NC(=O)[C@H](CCc1ccccc1)NC(=O)CN1CCOCC1)C(=O)N[C@@H](Cc1ccccc1)C(=O)N[C@@H](CC(C)C)C(=O)[C@@]1(C)CO1")
92.5

Items follow; give cell viability of combination for each.
1. COC(=O)C1=C(C)NC(C)=C(C(=O)OC2CCCN(Cc3ccccc3)C2)C1c1cccc([N+](=O)[O-])c1.Cl (stereo not drawn) [Benidipine HCl] + CC(C)C[C@H](NC(=O)[C@H](CCc1ccccc1)NC(=O)CN1CCOCC1)C(=O)N[C@@H](Cc1ccccc1)C(=O)N[C@@H](CC(C)C)C(=O)[C@@]1(C)CO1
2. CC(Oc1cc(-c2cnn(C3CCNCC3)c2)cnc1N)c1c(Cl)ccc(F)c1Cl [(R)-Crizotinib] + CC(C)C[C@H](NC(=O)[C@H](CCc1ccccc1)NC(=O)CN1CCOCC1)C(=O)N[C@@H](Cc1ccccc1)C(=O)N[C@@H](CC(C)C)C(=O)[C@@]1(C)CO1
3. O=C(c1ccc(F)c(F)c1Nc1ccc(I)cc1F)N1CC(O)(C2CCCCN2)C1 (stereo not drawn) [Cobimetinib] + CC(C)C[C@H](NC(=O)[C@H](CCc1ccccc1)NC(=O)CN1CCOCC1)C(=O)N[C@@H](Cc1ccccc1)C(=O)N[C@@H](CC(C)C)C(=O)[C@@]1(C)CO1
4. CC1=CC(=O)c2ccccc2C1=O [Menadione] + CC(C)C[C@H](NC(=O)[C@H](CCc1ccccc1)NC(=O)CN1CCOCC1)C(=O)N[C@@H](Cc1ccccc1)C(=O)N[C@@H](CC(C)C)C(=O)[C@@]1(C)CO1
5. COc1cccc2c1C(=O)c1c(O)c3c(c(O)c1C2=O)CC(O)(C(=O)CO)CC3OC1CC(N)C(O)C(C)O1.Cl (stereo not drawn) [Epirubicin HCl] + CC(C)C[C@H](NC(=O)[C@H](CCc1ccccc1)NC(=O)CN1CCOCC1)C(=O)N[C@@H](Cc1ccccc1)C(=O)N[C@@H](CC(C)C)C(=O)[C@@]1(C)CO1 [Carfilzomib]

result:
1: 106; 2: 146; 3: 65.6; 4: 78.2; 5: 73.9
